# Tested on: KM12 colon
# Procedure summary: NCI tumour cell line growth inhibition, 48 h
Assay endpoint: TGI (µM)
Record the value in µM, omitting the unit from your answer.

Per the record, CC(C)[Si](OCC/C=C/C1CCC(=O)C1C(O)C1CCCCC1)(C(C)C)C(C)C (centres undefined) has TGI of 30

Per the record, "C=C1C(=O)O[C@H]2[C@H]1CC/C(COC(=O)NCCc1c[nH]c3ccccc13)=C\CC[C@@]1(C)O[C@@H]21" has TGI of 21.4

Per the record, "C=C1C(=O)O[C@H]2[C@H]1CC/C(COC(=O)N[C@@H](Cc1c[nH]c3ccccc13)C(=O)OC)=C\CC[C@@]1(C)O[C@@H]21" has TGI of 15.6

All figures here come from PubChem BioAssay (NCI).
